target: ScMyo5; experiment: SPOT peptide array binding signal intensity (averaged, normalized) (arbitrary units (background-subtracted, floor 0; scale differs between SH3 domains)); higher = stronger binding of the SH3 domain to the peptide
Kindly state SPOT peptide array binding signal intensity for each of the entries shown.
Give bare numbers.

Answered examples (2):
- ALRRRLPVTRSKINW: 3.5
- LYKRKPILLPDPKPL: 0.5

Let us move to another entry and its SPOT peptide array binding signal intensity.
Bench note: what SPOT peptide array binding signal intensity did `NFFRKKLGIPRKLKR` show? 0.5
